# study-system: His6-Flag-TEV-NLRP3 (134-1036) (Homo sapiens)
# Construct: fused on or other part: N-terminal His6 tag, Flag tag and TEV cleavage site
# experimental-protocol: NLRP3 fluorescence polarization (FP) binding assay, competition with probe NP3-301
# condition-description: competition with NP3-301 for binding to NLRP3 (134-1036), 30 nM protein
test-readout: IC50

Solved cases (3 shown):
INSERT INTO measurements (structure_as_smiles, test_readout, result) VALUES
  ('CCN1CC2(CCN(c3nc4nc(-c5c(C)cc(C(F)(F)F)cc5O)ccc4o3)CC2)C1', 'IC50', '100 to 500 nM'),
  ('Cc1cc(C(F)(F)F)cc(O)c1-c1ccc2oc(N3CCOC[C@@H]3C)nc2n1', 'IC50', '100 to 500 nM'),
  ('Cc1cc(C(F)(F)F)cc(O)c1-c1ccc2oc(N3CCOC[C@H]3C)nc2n1', 'IC50', '≤ 100 nM');

Name the reported IC50 value associated with the molecule Cc1cc(C(F)(F)F)cc(O)c1-c1ccc2oc(N3CCC4(CCO4)CC3)nc2n1 ≤ 100 nM

* * *

# study-system: His6-Flag-TEV-NLRP3 (134-1036) (Homo sapiens)
# Construct: fused on or other part: N-terminal His6 tag, Flag tag and TEV cleavage site
# experimental-protocol: NLRP3 fluorescence polarization (FP) binding assay, competition with probe NP3-301
# condition-description: competition with NP3-301 for binding to NLRP3 (134-1036), 30 nM protein
pIC50: −log10 of the molar value.
test-readout: pIC50

Solved cases (3 shown):
INSERT INTO results (structure_as_smiles, study_system, result) VALUES
  ('COc1cc(C)c(-c2ccc3oc(NC[C@@H]4COCCN4C(C)=O)nc3n2)c(O)c1', 'His6-Flag-TEV-NLRP3 (134-1036) (Homo sapiens)', '6.00 to 6.30'),
  ('Cc1cc(C(F)(F)F)cc(O)c1-c1ccn2nc(N[C@@H]3CCCN(C)C3)nc2n1', 'His6-Flag-TEV-NLRP3 (134-1036) (Homo sapiens)', '≥ 7.00'),
  ('CCN1CCC[C@@H](Nc2nc3ccc(-c4c(C)cc(C(F)(F)F)cc4O)nn3n2)C1', 'His6-Flag-TEV-NLRP3 (134-1036) (Homo sapiens)', '≥ 7.00');

# context switch: different molecule, same pIC50
Name the reported pIC50 value associated with the molecule Cc1cc(C(F)(F)F)cc(O)c1-c1cc(C)c2nc(N3CCOCC3)nn2n1 ≥ 7.00

* * *

# study-system: His6-Flag-TEV-NLRP3 (134-1036) (Homo sapiens, UniProt Q96P20)
# Construct: fused on or other part: N-terminal His6 tag, Flag tag and TEV cleavage site
# Sequence (Q96P20 134-1036 limits assumed): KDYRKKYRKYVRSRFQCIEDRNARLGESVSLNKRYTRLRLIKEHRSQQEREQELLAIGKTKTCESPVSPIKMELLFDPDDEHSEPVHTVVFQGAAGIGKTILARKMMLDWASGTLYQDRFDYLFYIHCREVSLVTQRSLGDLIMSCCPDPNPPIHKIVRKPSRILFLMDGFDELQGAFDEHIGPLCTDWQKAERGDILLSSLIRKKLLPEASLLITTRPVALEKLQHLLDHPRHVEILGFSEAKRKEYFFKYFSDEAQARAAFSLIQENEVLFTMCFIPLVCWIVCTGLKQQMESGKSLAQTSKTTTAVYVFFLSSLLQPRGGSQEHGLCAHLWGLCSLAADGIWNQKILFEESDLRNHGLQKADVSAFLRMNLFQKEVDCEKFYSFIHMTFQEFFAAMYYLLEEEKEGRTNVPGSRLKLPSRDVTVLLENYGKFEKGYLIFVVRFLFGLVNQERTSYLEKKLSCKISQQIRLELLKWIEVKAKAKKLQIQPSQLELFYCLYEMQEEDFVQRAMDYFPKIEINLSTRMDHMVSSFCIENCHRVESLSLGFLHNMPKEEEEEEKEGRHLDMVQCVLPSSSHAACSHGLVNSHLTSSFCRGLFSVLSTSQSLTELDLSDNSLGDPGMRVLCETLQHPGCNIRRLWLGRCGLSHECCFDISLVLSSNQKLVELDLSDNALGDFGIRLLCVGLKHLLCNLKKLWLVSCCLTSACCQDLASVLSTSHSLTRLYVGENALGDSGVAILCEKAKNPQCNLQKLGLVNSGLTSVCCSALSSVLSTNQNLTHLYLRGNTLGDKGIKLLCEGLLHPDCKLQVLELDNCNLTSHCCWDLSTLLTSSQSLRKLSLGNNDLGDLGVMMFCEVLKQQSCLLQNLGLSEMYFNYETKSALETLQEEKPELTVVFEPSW
# experimental-protocol: NLRP3 fluorescence polarization (FP) binding assay, competition with probe NP3-301
# condition-description: competition with NP3-301 for binding to NLRP3 (134-1036), 30 nM protein
test-readout: IC50

INSERT INTO measurements (structure_as_smiles, result) VALUES
  ('Cc1cc(C(F)(F)F)cc(O)c1-c1ccc2nc(N[C@@H]3CCCN(C)C3)nn2n1', '≤ 100 nM'),
  ('Cc1cc(C(F)(F)F)cc(O)c1-c1ccc2oc(N3CCN(S(C)(=O)=O)CC3)nc2n1', '≤ 100 nM'),
  ('Cc1cc(C(F)(F)F)cc(O)c1-c1ccc2nc(NC[C@@H]3COCCN3S(C)(=O)=O)nn2n1', '500 to 1000 nM');

# context switch: different compound, same IC50
Name the reported IC50 value associated with the compound Cc1cc(C(F)(F)F)cc(O)c1-c1ccc2oc(N[C@@H]3CCCN(CCO)C3)nc2n1 ≤ 100 nM

Every entry's value here was drawn from patent US20260234150A1.
